Reported hCD71:HSA is given for each of the following binders.
ASSAY_SYSTEM: T1, human CD71 extracellular domain (human, UniProt P02786 89-760)
T1 construct: also called hCD71; CD71-ECD
T1 sequence (P02786 89-760): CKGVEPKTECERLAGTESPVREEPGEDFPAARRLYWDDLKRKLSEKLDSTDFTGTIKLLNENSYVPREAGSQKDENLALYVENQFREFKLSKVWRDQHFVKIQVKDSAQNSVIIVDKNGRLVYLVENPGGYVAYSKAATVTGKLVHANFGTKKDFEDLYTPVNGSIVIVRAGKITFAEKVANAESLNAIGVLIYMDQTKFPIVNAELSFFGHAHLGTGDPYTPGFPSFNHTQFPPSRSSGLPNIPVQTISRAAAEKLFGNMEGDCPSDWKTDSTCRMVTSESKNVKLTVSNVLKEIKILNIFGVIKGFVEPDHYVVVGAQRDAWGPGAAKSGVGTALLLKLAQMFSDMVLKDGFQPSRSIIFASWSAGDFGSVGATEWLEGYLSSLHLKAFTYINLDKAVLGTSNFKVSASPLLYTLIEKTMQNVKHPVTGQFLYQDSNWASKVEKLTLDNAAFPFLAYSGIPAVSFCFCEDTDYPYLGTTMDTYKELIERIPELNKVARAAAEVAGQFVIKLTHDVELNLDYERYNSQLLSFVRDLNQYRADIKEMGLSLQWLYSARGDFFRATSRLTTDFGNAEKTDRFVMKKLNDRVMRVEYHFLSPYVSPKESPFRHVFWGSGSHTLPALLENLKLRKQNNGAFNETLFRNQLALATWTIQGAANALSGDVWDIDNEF
MEASUREMENT_DESCRIPTION: primary ELISA; signal over HSA control
Numeric answer only, unit ratio assumed.

CD71-binding FN3 domain SEQ ID NO 433 (designed binder) MLPAPKNLVVSRVTEDSARLSWTAPDAAFDSFFIGYLEPQPPGEAIALYVPGSERSYDLTGLKPGTEYNVTIQGVKGGFPSLPLEANFTT : 169

Task: Identify the reported hCD71:HSA for the following entry. CD71-binding FN3 domain SEQ ID NO 390 (designed binder) MLPAPKNLVVSRVTEDSARLSWTAPDAAFDSFEIGYFERAWFGEAIVLTVPGSERSYDLTGLKPGTEYAVFIGGVKGGSYSYPLSAIFTT
Result: 53

Task: Please list hCD71:HSA recorded for the binder CD71-binding FN3 domain SEQ ID NO 348 (designed binder) MLPAPKNLVVSRVTEDSARLSWTAPDAAFDSFEISYFENTWYGEAIVLTVPGSERSYDLTGLKPGTEYVVWIGGVKGGLWSKPLSAIFTT
Result: 115

Task: Fill in reported hCD71:HSA for this entry: CD71-binding FN3 domain SEQ ID NO 413 (designed binder) MLPAPKNLVVSRVTEDSARLSWTAPDAAFDSFFIGYLEPQPPGEAIYLRVPGSERSYDLTGLKPGTEYNVTIQGVKGGFPSAPLHAHFTT
Result: 287

Task: Assign hCD71:HSA to the following record: CD71-binding FN3 domain SEQ ID NO 428 (designed binder) MLPAPKNLVVSRVTEDSARLSWTAPDAAFDSFFIGYLEPQPPGEAISLYVPGSERSYDLTGLKPGTEYNVTIQGVKGGFPSNPLIAQFTT
Result: 195

Task: Specify measured hCD71:HSA for CD71-binding FN3 domain SEQ ID NO 408 (designed binder) MLPAPKNLVVSRVTEDSARLSWTAPDAAFDSFFIGYLEPQPPGEAIGLWVPGSERSYDLTGLKPGTEYNVTIQGVKGGFPSMPLSAIFTT .
Result: 116

The values you see were collected from patent US20260151494A1.
